- System: Raw264.7 cells
- method_description: Cell number (CellNb) from image analysis of the phenotypic cell-based assay
- run_conditions: primary screen, 20 μM
property_label: Primary QIM CellNb

[[record]]
molecule = "CC(NC(=O)c1ccc(C(C)(C)C)cc1)c1ccccc1 (centres unmarked) [IPK 000 067 61]"
property_label = "Primary QIM CellNb"
reported_value = 182.0

[[record]]
molecule = "NNC(=O)c1ccc(COc2ccccc2Br)o1 [IPK 000 124 64]"
property_label = "Primary QIM CellNb"
reported_value = 501.5

[[record]]
molecule = "CCC(C)c1ccc(NC(=O)c2ccc(Cl)c([N+](=O)[O-])c2)cc1 (centres unmarked) [IPK 000 048 71]"
property_label = "Primary QIM CellNb"
reported_value = 56.5

[[record]]
molecule = "O=C(CSc1cccs1)Nc1nccs1 [IPK 000 002 87]"
property_label = "Primary QIM CellNb"
reported_value = 350.3

[[record]]
molecule = "Fc1ccc(Nc2nc3nonc3nc2Nc2ccc(F)cc2)cc1 [IPK 000 003 91]"
property_label = "Primary QIM CellNb"
reported_value = 63.0

[[record]]
molecule = "O=[N+]([O-])c1ccc(O)c(C2NN=C(c3ccccc3)S2)c1 (centres unmarked) [IPK 000 114 01]"
property_label = "Primary QIM CellNb"
reported_value = 163.5

[[record]]
molecule = "O=C(CS)Nc1ccccc1Cl [IPK 000 108 27]"
property_label = "Primary QIM CellNb"
reported_value = 171.0

[[record]]
molecule = "O=C(N/N=C/c1cccc([N+](=O)[O-])c1)c1ccncc1 [IPK 000 041 47]"
property_label = "Primary QIM CellNb"
reported_value = 362.8

[[record]]
molecule = "O=C(N/N=C1\\C(=O)N(Cc2cccc3ccccc23)c2ccccc21)c1cc(-c2ccccc2)n[nH]1 [IPK 000 103 78]"
property_label = "Primary QIM CellNb"
reported_value = 263.5

[[record]]
molecule = "O=[N+]([O-])c1cc(Br)cc(/C=N/c2ccccc2O)c1O [IPK 000 080 69]"
property_label = "Primary QIM CellNb"
reported_value = 123.5

[[record]]
molecule = "O=C(N/N=C/c1cc2c(cc1[N+](=O)[O-])OCO2)c1ccncc1 [IPK 000 058 30]"
property_label = "Primary QIM CellNb"
reported_value = 315.8

[[record]]
molecule = "CCCC(=O)/N=C(\\N)Nc1nc2ccccc2o1 [IPK 000 122 62]"
property_label = "Primary QIM CellNb"
reported_value = 131.5

[[record]]
molecule = "O=C(O)c1cn(C2CC2)c2cc(N3CCNCC3)c(F)cc2c1=O [IPK 000 117 14]"
property_label = "Primary QIM CellNb"
reported_value = 546.0

[[record]]
molecule = "O=C(N/N=C/c1cccc2ccccc12)c1ccncc1 [IPK 000 041 46]"
property_label = "Primary QIM CellNb"
reported_value = 320.0

[[record]]
molecule = "CCOC(=O)C1(O)c2ccccc2-c2ccccc21 [IPK 000 105 55]"
property_label = "Primary QIM CellNb"
reported_value = 181.3

[[record]]
molecule = "Cc1nn(-c2ccccc2)c(Cl)c1/C=N/NC(=O)c1ccccn1 [IPK 000 001 90]"
property_label = "Primary QIM CellNb"
reported_value = 435.5

[[record]]
molecule = "O=C(NC12CC3CC(CC(C3)C1)C2)c1ccc([N+](=O)[O-])cc1 [IPK 000 113 77]"
property_label = "Primary QIM CellNb"
reported_value = 319.8

[[record]]
molecule = "COc1cccc(C2Nc3ccc(C(=O)O)cc3C3C=CCC32)c1 (centres unmarked) [IPK 000 112 80]"
property_label = "Primary QIM CellNb"
reported_value = 152.0

[[record]]
molecule = "N#Cc1cc(Br)c([N+](=O)[O-])cc1C#N [IPK 000 042 72]"
property_label = "Primary QIM CellNb"
reported_value = 152.0

[[record]]
molecule = "COc1cc(Br)cc(/C=N/NC(=O)c2ccncc2)c1O [IPK 000 079 15]"
property_label = "Primary QIM CellNb"
reported_value = 383.3

[[record]]
molecule = "CCOc1nnc(NS(=O)(=O)c2ccc(/N=C/c3ccccc3O)cc2)s1 [IPK 000 080 01]"
property_label = "Primary QIM CellNb"
reported_value = 409.8

[[record]]
molecule = "CCOC(=O)C1=C(C)NC2=C(C(=O)CC(c3ccccc3)C2)C1c1cccc(O)c1 (centres unmarked) [IPK 000 083 89]"
property_label = "Primary QIM CellNb"
reported_value = 38.8

[[record]]
molecule = "CN1C/C(=C\\c2ccccc2Br)C(=O)/C(=C/c2ccccc2Br)C1 [IPK 000 102 36]"
property_label = "Primary QIM CellNb"
reported_value = 193.3

[[record]]
molecule = "N#Cc1ccccc1NC(=O)CSc1nc2ccccc2s1 [IPK 000 018 97]"
property_label = "Primary QIM CellNb"
reported_value = 314.0

[[record]]
molecule = "Cc1cccn2c(=O)c(C=O)c(Nc3cccc(Cl)c3)nc12 [IPK 000 042 07]"
property_label = "Primary QIM CellNb"
reported_value = 198.0

[[record]]
molecule = "O=C(N/N=C/c1ccc(O)cc1)c1ccncc1 [IPK 000 043 07]"
property_label = "Primary QIM CellNb"
reported_value = 303.5

[[record]]
molecule = "O=C(NC1CCCCC1)c1ccc(COc2cc(Cl)ccc2Cl)o1 [IPK 000 123 90]"
property_label = "Primary QIM CellNb"
reported_value = 205.0

[[record]]
molecule = "O=C(N/N=C/c1ccccc1F)c1ccncc1 [IPK 000 013 71]"
property_label = "Primary QIM CellNb"
reported_value = 358.8

[[record]]
molecule = "COc1ccc(/C=N/NC(=O)c2ccncc2)cc1OC [IPK 000 042 95]"
property_label = "Primary QIM CellNb"
reported_value = 143.5

[[record]]
molecule = "O=C(N/N=C/c1cc2ccccc2[nH]1)c1ccncc1 [IPK 000 043 12]"
property_label = "Primary QIM CellNb"
reported_value = 195.0

[[record]]
molecule = "O=C(Nc1ccc(Oc2ccccc2)cc1)C1CCCO1 (centres unmarked) [IPK 000 033 16]"
property_label = "Primary QIM CellNb"
reported_value = 283.0

[[record]]
molecule = "COc1cc(Cl)cc(/C=N/NC(=O)c2ccccc2O)c1O [IPK 000 104 20]"
property_label = "Primary QIM CellNb"
reported_value = 29.5

[[record]]
molecule = "Oc1c(Cl)cc(Cl)cc1C(=S)Nc1ccccc1 [IPK 000 042 78]"
property_label = "Primary QIM CellNb"
reported_value = 194.5

[[record]]
molecule = "CCOC(=O)/N=C(\\NC(C)=O)c1cccc(Cl)c1 [IPK 000 033 61]"
property_label = "Primary QIM CellNb"
reported_value = 188.3

[[record]]
molecule = "CC(=O)Oc1ccccc1C(=S)Nc1ccccc1 [IPK 000 042 77]"
property_label = "Primary QIM CellNb"
reported_value = 367.0

[[record]]
molecule = "O=[N+]([O-])c1cc(C(F)(F)F)cc([N+](=O)[O-])c1Sc1nc(-c2ccccc2)c[nH]1 [IPK 000 001 32]"
property_label = "Primary QIM CellNb"
reported_value = 88.3

[[record]]
molecule = "COc1ccc(/C=N/NC(=O)c2ccncc2)c(OC)c1 [IPK 000 043 00]"
property_label = "Primary QIM CellNb"
reported_value = 333.3

[[record]]
molecule = "c1cc2c(cc1C13CC4CC(CC(C4)C1)C3)c1c3n2CCNC3CCC1 (centres unmarked) [IPK 000 068 87]"
property_label = "Primary QIM CellNb"
reported_value = 156.8

